The entries below are paired with their reported activation.
experiment: compounds raising PGC1a acetylation signal, primary screen, PGC1a modulator project, cell-based, U2OS, AlphaScreen, signal-increasing mode (AID 651723); settings: overnight, at 15.6 µM, stronger effect = higher value
Hit rate of the full screen: of about 350,000 compounds, about 740 (0.21%) were called active. The entries come from a sample that favours actives as a whole.

A selection of reference data follows.
COc1ccc(NC(=O)/C(Cl)=C(/Cl)S(=O)Cc2ccc(C)cc2)cn1 (stereo not given) | -69.3% (inactive)
CCN(CC)C(=O)c1ccc(O)c(OC)c1 | -55.9% (inactive)
Cc1cccc(CS(=O)(=O)c2ncc(Cl)c(C(=O)Nc3ccc(F)cc3)n2)c1 | 138% (active)
CCc1ccc(N2CC(O)=C(c3nc4ccccc4c(=O)[nH]3)C2=N)cc1 | 165% (active)
COc1ccc(S(=O)(=O)N2CCN(C(=O)c3cccs3)CC2)cc1OC | -44% (inactive)

Tell me activation reported for COc1ccc(C2CC(c3cccs3)=NN2c2nc(C)c(C(C)=O)s2)cc1OC (stereo not given)
83.1% (active)

// Input: `N#Cc1ccc(-c2ccc([C@@H]3[C@H]4CNC[C@@H]3N4Cc3ccc4c(c3)OCO4)cc2)cc1` . Output its activation only.
-48.1% (inactive)

Tell me its activation given `CC(C)(C)c1cc(C(=O)N/N=C/c2ccc([N+](=O)[O-])s2)n[nH]1` as the entry.
80.1% (active)

For the compound `O=C(Nc1cccc(Cl)c1)c1cncn1-c1ccc(F)cc1` , give its reported activation.
-44.8% (inactive)

Retrieve activation measured for `N=C1C(c2nc3ccccc3s2)=C(O)CN1NC(=O)c1ccc([N+](=O)[O-])cc1` and print it.
-100% (inactive)

All values here come from PubChem BioAssay AID651723.
